Provide the recorded normalized growth for the entries that follow.
assay-procedure: chemical genetic growth profiling, strain panel (AID 1159580);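 also: tested at 20 µM; growth read once vehicle control cultures reached saturation at 30 °C; 1 = growth at the plate median or of vehicle wells; lower values mean less growth of the strain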
condition-parameters: S. cerevisiae deletion strains, growth OD, locus YGL078C, strain dbp3, hits give low values
In all, about 5,500 compounds went through this assay and about 2,000 (36%) were called active. Roughly 18% stayed inconclusive and do not appear here. Some of the results follow.
Reply with just the number.

## Task # input molecule: `COc1ccc([C@@H]2CC(=O)c3c(O)cc(O)cc3O2)cc1O` ; wanted: its normalized growth
## Result 1

## Task # input molecule: COc1cc(OC)c2c(c1)OC(c1ccccc1)CC2=O (stereo unspecified) ; wanted: its normalized growth
## Result 1.01

## Task # input molecule: `O=C1C[C@@H](c2ccc(O)cc2)Oc2cc(O)cc(O)c21` ; wanted: its normalized growth
## Result 1.02

## Task # input molecule: O=C1CC(c2ccccc2)Oc2ccccc21 (stereo unspecified) ; wanted: its normalized growth
## Result 0.96

## Task # input molecule: `C[C@@H]1O[C@@H](O[C@H]2[C@@H](Oc3cc(O)c4c(c3)O[C@H](c3ccc(O)cc3)CC4=O)O[C@H](CO)[C@@H](O)[C@@H]2O)[C@H](O)[C@H](O)[C@H]1O` ; wanted: its normalized growth
## Result 0.991

## Task # input molecule: O=C1CC(c2ccc(O)cc2)Oc2ccccc21 (stereo unspecified) ; wanted: its normalized growth
## Result 0.944
